test system: Streptococcus pneumoniae; assay: Antibacterial activity against Penicillin-resistant Streptococcus pneumoniae after 24 hrs by microdilution method; type: functional
attribute_measured: MIC (mg/L)
# unit: mg/L | format: bare number

Entry under test: `CC(C)(C)[C@H](NC(=O)[C@H](CC1CCCC1)CN(O)C=O)C(=O)N1CCC(NCc2ccc3[nH]ccc3c2)CC1` . Its MIC was 0.8

The reported value for `CC(C)(C)[C@H](NC(=O)[C@H](CC1CCCC1)CN(O)C=O)C(=O)N1CCC(NCc2ccco2)CC1` in terms of MIC is 1.6

So for `CC(C)(C)[C@H](NC(=O)[C@H](CC1CCCC1)CN(O)C=O)C(=O)N1CCC(NCc2ccc(F)cc2)CC1` , the logged MIC turned out to be 0.4

Documented MIC of `CC(C)(C)[C@H](NC(=O)[C@H](CC1CCCC1)CN(O)C=O)C(=O)N1CCC(NCc2ccc[nH]2)CC1` : 6.3

Recorded result, `COc1ccc(CNC2CCN(C(=O)[C@@H](NC(=O)[C@H](CC3CCCC3)CN(O)C=O)C(C)(C)C)CC2)c(OC)c1` , MIC: 0.8

Memo: `CC(C)(C)[C@H](NC(=O)[C@H](CC1CCCC1)CN(O)C=O)C(=O)N1CCC(Nc2ccc3c(c2)OCO3)CC1` , reported MIC: 0.4

Further cases:
# MIC of `CC(=O)Nc1ccc(CNC2CCN(C(=O)[C@@H](NC(=O)[C@H](CC3CCCC3)CN(O)C=O)C(C)(C)C)CC2)cc1` = 1.6

For record `CC(C)(C)[C@H](NC(=O)[C@H](CC1CCCC1)CN(O)C=O)C(=O)N1CCC(NCc2cc(F)c(F)cc2F)CC1` the listed MIC is 0.4

Sure, the documented MIC for `CC(C)(C)[C@H](NC(=O)[C@H](CC1CCCC1)CN(O)C=O)C(=O)N1CCC(NCc2ccc(C#N)cc2)CC1` is 0.4
